- Assayed System: 5-hydroxytryptamine receptor 1A (Homo sapiens)
- Sequence (P08908 whole entry): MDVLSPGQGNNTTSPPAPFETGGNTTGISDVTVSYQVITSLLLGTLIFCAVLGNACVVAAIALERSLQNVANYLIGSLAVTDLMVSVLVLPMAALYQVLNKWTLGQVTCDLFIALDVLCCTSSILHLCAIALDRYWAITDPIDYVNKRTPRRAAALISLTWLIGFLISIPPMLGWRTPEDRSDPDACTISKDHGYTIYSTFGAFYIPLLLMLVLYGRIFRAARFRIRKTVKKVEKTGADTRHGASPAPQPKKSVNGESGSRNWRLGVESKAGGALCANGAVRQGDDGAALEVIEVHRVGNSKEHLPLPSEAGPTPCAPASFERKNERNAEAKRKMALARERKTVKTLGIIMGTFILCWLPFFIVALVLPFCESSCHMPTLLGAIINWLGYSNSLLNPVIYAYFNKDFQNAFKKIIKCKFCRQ
- Assay Info: Antagonism at the 5-hydroxytryptamine 1A receptor in vitro
- Assay type: functional
Reported Property: IC50 (nM)
Quick note: give the figure in nM, leave out the unit.

Prompt line: Can you share its IC50? I mean this compound: `C1=C(c2c[nH]c3ncccc23)CCN(CCOc2cccc3c2OCCO3)C1`
Response line: 969

====

- Assayed System: 5-hydroxytryptamine receptor 1A (Homo sapiens)
- Assay Info: Antagonism at the 5-hydroxytryptamine 1A receptor was determined in vitro using a [35S]GTP-gamma-S,
- Assay type: functional
Reported Property: pIC50
Please note pIC50 is a logarithmic value: minus log10 of concentration in mol/L. Answer with that number alone.

Prompt line: Can you share its pIC50? I mean this compound: `C1=C(c2c[nH]c3ccccc23)CCN(CCOc2cccc3[nH]ccc23)C1`
Response line: 6.94

Prompt line: Can you share its pIC50? I mean this compound: `C1=C(c2c[nH]c3ncccc23)CCN(CCOc2cccc3ncccc23)C1`
Response line: 6.74

====

- Assayed System: 5-hydroxytryptamine receptor 1A (Homo sapiens)
- Assay Info: Antagonism of 5-hydroxytryptamine 1A receptor determined in vitro
- Type: functional
For each record, write down the corresponding pIC50.
Please note pIC50 is a logarithmic value: minus log10 of concentration in mol/L. Answer with that number alone.

Prompt line: Can you share its pIC50? I mean this molecule: `C1=C(c2c[nH]c3ncccc23)CCN(CCOc2cccc3ncccc23)C1`
Response line: 7.05

Prompt line: Can you share its pIC50? I mean this molecule: `C1=C(c2c[nH]c3ccccc23)CCN(CCOc2cccc3ncccc23)C1`
Response line: 6.16

Prompt line: Can you share its pIC50? I mean this molecule: `Fc1ccc2c(C3CCN(CCOc4cccc5c4OCCO5)CC3)c[nH]c2c1`
Response line: 6.04

Prompt line: Can you share its pIC50? I mean this molecule: `Fc1ccc2[nH]cc(C3=CCN(CCOc4cccc5c4OCCO5)CC3)c2c1`
Response line: 5.98

Prompt line: Can you share its pIC50? I mean this molecule: `C1=C(c2c[nH]c3ccccc23)CCN(CCOc2cccc3c2OCCO3)C1`
Response line: 6.94

Prompt line: Can you share its pIC50? I mean this molecule: `C1=C(c2c[nH]c3ncccc23)CCN(CCOc2cccc3[nH]ccc23)C1`
Response line: 7.92

Prompt line: Can you share its pIC50? I mean this molecule: `C1=C(c2c[nH]c3ccccc23)CCN(CCOc2cccc3[nH]ccc23)C1`
Response line: 7.48

====

For each record, write down the corresponding IC50.
- Assayed System: 5-hydroxytryptamine receptor 1A (Homo sapiens)
- Assay Info: Antagonism of 5-hydroxytryptamine 1A receptor was determined in vitro using a [35S]GTP-gamma-S,
- Format: functional
Quick note: give the figure in nM, leave out the unit.

Prompt line: Can you share its IC50? I mean this compound: `C1=C(c2c[nH]c3ccccc23)CCN(CCOc2cccc3c2OCCO3)C1`
Response line: 222

Prompt line: Can you share its IC50? I mean this compound: `C1=C(c2c[nH]c3ccccc23)CCN(CCOc2cccc3ncccc23)C1`
Response line: 524

Prompt line: Can you share its IC50? I mean this compound: `C1=C(c2c[nH]c3ncccc23)CCN(CCOc2cccc3[nH]ccc23)C1`
Response line: 38.9

Prompt line: Can you share its IC50? I mean this compound: `Fc1ccc2c(C3CCN(CCOc4cccc5c4OCCO5)CC3)c[nH]c2c1`
Response line: 666

Prompt line: Can you share its IC50? I mean this compound: `Fc1ccc2[nH]cc(C3=CCN(CCOc4cccc5c4OCCO5)CC3)c2c1`
Response line: 684
